test system: UACC-62; assay: Growth inhibition of human UACC62 cells after 48 hrs by sulforhodamine B assay; assay type: functional; conditions: UACC-62, 48 h
measured-metric: GI50 (µM)
Numbers only, in µM.

# annotated cases, reported GI50 shown
- compound-structure: "CC(C)=CCC/C(C)=C/CC/C(C)=C/CC[C@]1(C)CCc2c3c(cc(C)c2O1)OCN(CCCCCO)C3"
  GI50 [µM]: 5.87
- compound-structure: "CC(C)=CCC/C(C)=C/CC/C(C)=C/CC[C@]1(C)CCc2c3c(c(C)c(C)c2O1)OCN(CCCCCO)C3"
  GI50 [µM]: 5.87
- compound-structure: "COc1ccc(CCN2COc3cc(C)c4c(c3C2)CC[C@@](C)(CC/C=C(\\C)CC/C=C(\\C)CCC=C(C)C)O4)cc1OC"
  GI50 [µM]: 1.64

Attention now shifts to the item below.
Reported GI50 of CC(C)=CCC/C(C)=C/CC/C(C)=C/CC[C@]1(C)CCc2c3c(c(C)c(C)c2O1)OCN(CCCCCCO)C3 : 2.67

====

system: HOP-62; test: Growth inhibition of human HOP62 cells after 48 hrs by sulforhodamine B assay; assay type: functional; conditions: HOP-62, 48 h
Mark each entry satisfied if its GI50 sits below 6 µM, and not satisfied for all others.

These solved cases illustrate the format of a correct answer.
- compound-structure: "CC(C)=CCC/C(C)=C/CC/C(C)=C/CC[C@]1(C)CCc2c3c(cc(C)c2O1)OCN(CCCCO)C3"
  experimental-system: "HOP-62"
  class-name: "not satisfied"
- compound-structure: "CC(C)=CCC/C(C)=C/CC/C(C)=C/CC[C@]1(C)CCc2c3c(cc(C)c2O1)OCN(CCCCCCCCO)C3"
  experimental-system: "HOP-62"
  class-name: "satisfied"
- compound-structure: "CC(C)=CCC/C(C)=C/CC/C(C)=C/CC[C@]1(C)CCc2c3c(cc(C)c2O1)OCN(CCc1ccc(O)cc1)C3"
  experimental-system: "HOP-62"
  class-name: "satisfied"
- compound-structure: "COc1ccc(CCN2COc3cc(C)c4c(c3C2)CC[C@@](C)(CC/C=C(\\C)CC/C=C(\\C)CCC=C(C)C)O4)cc1OC"
  experimental-system: "HOP-62"
  class-name: "satisfied"

Kindly review the next molecule as well.
Req: Does the reported GI50 of the following molecule sit strictly below 6 µM? CC(C)=CCC/C(C)=C/CC/C(C)=C/CC[C@]1(C)CCc2c3c(c(C)c(C)c2O1)OCN(CCCCCCCCO)C3
Resp: satisfied

====

test system: UACC-62; assay: Growth inhibition of human UACC62 cells assessed as cell growth at 10 uM after 48 hrs by sulforhodamine B assay; type: functional; settings: UACC-62, 48 h, read-out: Activity
Field: growth at 10 µM. Provide a value for each of the compounds that follow.
Numbers only, in %.

- compound: "CC(C)=CCC/C(C)=C/CC/C(C)=C/CC[C@]1(C)CCc2c(CNCCc3ccc(O)cc3)c(O)c(C)c(C)c2O1"
  units-text: "%"
  growth at 10 µM: 106
- compound: "CC(C)=CCC/C(C)=C/CC/C(C)=C/CC[C@]1(C)CCc2c3c(cc(C)c2O1)OCN(CCCCCCCCCCCCO)C3"
  units-text: "%"
  growth at 10 µM: 67.2
- compound: "COc1ccc(CCN2COc3cc(C)c4c(c3C2)CC[C@@](C)(CC/C=C(\\C)CC/C=C(\\C)CCC=C(C)C)O4)cc1OC"
  units-text: "%"
  growth at 10 µM: 91.7
- compound: "COc1ccc(CCNCc2c(O)c(C)c(C)c3c2CC[C@@](C)(CC/C=C(\\C)CC/C=C(\\C)CCC=C(C)C)O3)cc1OC"
  units-text: "%"
  growth at 10 µM: 98.3
- compound: "CC(C)=CCC/C(C)=C/CC/C(C)=C/CC[C@]1(C)CCc2c3c(cc(C)c2O1)OCN(CCCCCCCCCCO)C3"
  units-text: "%"
  growth at 10 µM: 109
- compound: "CC(C)=CCC/C(C)=C/CC/C(C)=C/CC[C@]1(C)CCc2cc(O)c(C)c(C)c2O1 [GAMMA-TOCOTRIENOL]"
  units-text: "%"
  growth at 10 µM: 108

State recorded growth at 10 µM for all listed compounds.
1. CC(C)=CCC/C(C)=C/CC/C(C)=C/CC[C@]1(C)CCc2c3c(cc(C)c2O1)OCN(C1CCN(Cc2ccccc2)CC1)C3
2. CC(C)=CCC/C(C)=C/CC/C(C)=C/CC[C@]1(C)CCc2c3c(c(C)c(C)c2O1)OCN(CCCCCO)C3
3. CC(C)=CCC/C(C)=C/CC/C(C)=C/CC[C@]1(C)CCc2c3c(c(C)c(C)c2O1)OCN(CCCCCCCCO)C3
4. CC(C)=CCC/C(C)=C/CC/C(C)=C/CC[C@]1(C)CCc2c3c(c(C)c(C)c2O1)OCN(CCCCO)C3
5. CC(C)=CCC/C(C)=C/CC/C(C)=C/CC[C@]1(C)CCc2c3c(cc(C)c2O1)OCN(CCCCO)C3
6. CC(C)=CCC/C(C)=C/CC/C(C)=C/CC[C@]1(C)CCc2c3c(c(C)c(C)c2O1)OCN(CCCCCCCCCCCCO)C3
7. CC(C)=CCC/C(C)=C/CC/C(C)=C/CC[C@]1(C)CCc2c3c(cc(C)c2O1)OCN(CCCO)C3
8. CC(C)=CCC/C(C)=C/CC/C(C)=C/CC[C@]1(C)CCc2c3c(c(C)c(C)c2O1)OCN(CCCCCCCCCCO)C3

Resp:
[93.6, 99.2, 93.1, 96.6, 68.5, 89.5, 93, 103]

State recorded growth at 10 µM for all listed compounds.
1. CC(C)=CCC/C(C)=C/CC/C(C)=C/CC[C@]1(C)CCc2c3c(cc(C)c2O1)OCN(CCCCCCO)C3
2. CC(C)=CCC/C(C)=C/CC/C(C)=C/CC[C@]1(C)CCc2c3c(cc(C)c2O1)OCN(CCCCCCCCO)C3

Resp:
1: 75.8; 2: -15.3

====

Field: growth at 10 µM. Provide a value for each of the compounds that follow.
test system: RXF 393; assay: Growth inhibition of human RXF393 cells assessed as cell growth at 10 uM after 48 hrs by sulforhodamine B assay; type: functional; details: RXF 393, 48 h, read-out: Activity
Answers are plain numbers, in %.

# annotated cases, reported growth at 10 µM shown
- compound: "CC(C)=CCC/C(C)=C/CC/C(C)=C/CC[C@]1(C)CCc2c3c(c(C)c(C)c2O1)OCN(CCCCCCCCO)C3"
  test-value: -10.7
- compound: "CC(C)=CCC/C(C)=C/CC/C(C)=C/CC[C@]1(C)CCc2c3c(cc(C)c2O1)OCN(CCCCO)C3"
  test-value: -96.3

State recorded growth at 10 µM for all listed compounds.
1. CC(C)=CCC/C(C)=C/CC/C(C)=C/CC[C@]1(C)CCc2cc(O)c(C)c(C)c2O1 [GAMMA-TOCOTRIENOL]
2. CC(C)=CCC/C(C)=C/CC/C(C)=C/CC[C@]1(C)CCc2c3c(c(C)c(C)c2O1)OCN(CCCCCCO)C3
3. CC(C)=CCC/C(C)=C/CC/C(C)=C/CC[C@]1(C)CCc2c3c(c(C)c(C)c2O1)OCN(CCCCO)C3
4. CC(C)=CCC/C(C)=C/CC/C(C)=C/CC[C@]1(C)CCc2c3c(cc(C)c2O1)OCN(CCCCCCCCO)C3
5. CC(C)=CCC/C(C)=C/CC/C(C)=C/CC[C@]1(C)CCc2c3c(cc(C)c2O1)OCN(CCCO)C3
6. CC(C)=CCC/C(C)=C/CC/C(C)=C/CC[C@]1(C)CCc2c3c(cc(C)c2O1)OCN(CCCCCCCCCCO)C3
7. CC(C)=CCC/C(C)=C/CC/C(C)=C/CC[C@]1(C)CCc2c3c(c(C)c(C)c2O1)OCN(CCCCCCCCCCCCO)C3

Resp:
1. 84.1
2. 22.4
3. 78.2
4. -97.1
5. -90.5
6. 52.6
7. 92.5

State recorded growth at 10 µM for all listed compounds.
1. CC(C)=CCC/C(C)=C/CC/C(C)=C/CC[C@]1(C)CCc2c3c(cc(C)c2O1)OCN(CCCCCCO)C3
2. CC(C)=CCC/C(C)=C/CC/C(C)=C/CC[C@]1(C)CCc2c3c(cc(C)c2O1)OCN(CCCCCCCCCCCCO)C3
3. CC(C)=CCC/C(C)=C/CC/C(C)=C/CC[C@]1(C)CCc2c3c(c(C)c(C)c2O1)OCN(CCCCCCCCCCO)C3

Resp:
[-95.6, 34.4, 83.1]

====

Field: GI50. Provide a value for each of the compounds that follow.
system: T47D; experiment: Growth inhibition of human T47D cells after 48 hrs by sulforhodamine B assay; format: functional
Numbers only, in µM.

# annotated cases, reported GI50 shown
- compound-structure: "CC(C)=CCC/C(C)=C/CC/C(C)=C/CC[C@]1(C)CCc2c3c(cc(C)c2O1)OCN(C1CCN(Cc2ccccc2)CC1)C3"
  measured-metric: "GI50"
  test-value: 2.18
- compound-structure: "CC(C)=CCC/C(C)=C/CC/C(C)=C/CC[C@]1(C)CCc2c3c(cc(C)c2O1)OCN(CCCCCCCCO)C3"
  measured-metric: "GI50"
  test-value: 3.94

State recorded GI50 for all listed compounds.
1. CC(C)=CCC/C(C)=C/CC/C(C)=C/CC[C@]1(C)CCc2c3c(c(C)c(C)c2O1)OCN(CCCCCO)C3
2. CC(C)=CCC/C(C)=C/CC/C(C)=C/CC[C@]1(C)CCc2c3c(cc(C)c2O1)OCN(CCCCCO)C3

Resp:
[6.17, 6.17]

// data source = ChEMBL document CHEMBL2380254
